- Test system: S. maltophilia 51Cl
- protocolDescription: Novispirins vs S. maltophilia (Table 5)
- Assay type: cell-based, Stenotrophomonas maltophilia
- Parameters: unit not given here
- reportedConditions: +175 mM NaCl; strain 51Cl
- Method: Microorganisms used in this study included 13 different Pseudomonas aeruginosa strains. The AML-654 and LZ-1 strains are recent clinical isolates from the UCLA Clinical Microbiology laboratory. Nine strains (5 mucoid, 4 nonmucoid) were recent CF isolates provided by Dr. Lisa Saiman. All of the P. aeruginosa strains except PAO-1 strain were resistant to multiple conventional antibiotics, and all 9 CF isolates were resistant to 250 μg/ml of tobramycin. […]
Where no end group is shown, it is not given here.
Below, each of the substances is paired with its reported activity vs S. maltophilia value.
Format: numeric value only, no unit, no commentary.

Illustrative cases are given below, each with its answer.
GLLRRLRKKIGEIFKKYG [PGG, reference compound] :: 2.85
KNLRRIGRKIIHIIKKYG [G7 Novispirin, K N L R R I G R K I I H I I K K Y G] :: 1.94
KNLRRITRKIIHIIKKYG [T7 Novispirin, K N L R R I T R K I I H I I K K Y G] :: 2.74

Task item: So what's the measured activity vs S. maltophilia for this one? KNLRRIIRKGIHIIKKYG-OH [G10 Novispirin, K N L R R I I R K G I H I I K K Y G]
Reply: 8.18
